- target system: UniProt:Q5NUL3
- Sequence (Q5NUL3 whole entry): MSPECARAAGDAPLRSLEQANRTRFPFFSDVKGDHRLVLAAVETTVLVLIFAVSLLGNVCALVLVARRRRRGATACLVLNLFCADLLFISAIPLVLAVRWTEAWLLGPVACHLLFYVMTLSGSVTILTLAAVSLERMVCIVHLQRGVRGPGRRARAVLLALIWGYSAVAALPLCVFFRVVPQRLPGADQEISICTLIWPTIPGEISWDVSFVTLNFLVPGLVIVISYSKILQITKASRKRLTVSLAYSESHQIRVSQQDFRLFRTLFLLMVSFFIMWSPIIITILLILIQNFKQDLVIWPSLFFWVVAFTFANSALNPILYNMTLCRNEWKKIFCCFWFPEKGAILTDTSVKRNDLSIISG
- experiment summary: GPR120 pERK AlphaScreen SureFire Assay (human GPR120 pERK assay)
- measurement parameters: CHOA12 or CHO-K1 cells stably transfected with the short form of human GPR120 receptor; phosphorylated ERK; read-out: EC50 values measured in the human GPR120 pERK assay

compound	target system	EC50
CC(CCC12CCC(OCc3ccccc3Oc3ccccc3)(CC1)C2)C(=O)O (stereo not drawn) [Example 68]	UniProt:Q5NUL3	1000 nM
O=C(O)CCCC12CCC(OCc3ccccc3C(F)(F)F)(CC1)C2 [Example 64]	UniProt:Q5NUL3	1510 nM
O=C(O)CCCC12CCC(OCc3cc(OC(F)(F)F)ccc3F)(CC1)C2 [Example 33]	UniProt:Q5NUL3	260 nM
COC(=O)CCCC12CCC(OCc3cc(F)ccc3-c3ccc(C)cc3)(CC1)C2 [Example 66]	UniProt:Q5NUL3	370 nM
O=C(O)CCCC12CCC(OCc3ccc(Cl)cc3)(CC1)C2 [Example 24]	UniProt:Q5NUL3	2800 nM
COc1ccc(OC(F)(F)F)cc1COC12CCC(CCCC(=O)O)(CC1)C2 [Example 29]	UniProt:Q5NUL3	5070 nM
CSc1nccc(COC23CCC(CCCC(=O)O)(CC2)C3)n1 [Example 67]	UniProt:Q5NUL3	4960 nM
Cc1ccc(Br)cc1COC12CCC(CCCC(=O)O)(CC1)C2 [Example 62]	UniProt:Q5NUL3	810 nM
O=C(O)CCCC12CCC(OCc3cccc(-c4ccccc4)c3)(CC1)C2 [Example 57]	UniProt:Q5NUL3	770 nM
O=C(O)CCCC12CCC(OCc3cccc(C(F)(F)F)c3F)(CC1)C2 [Example 46]	UniProt:Q5NUL3	290 nM
COc1cc(F)cc(COC23CCC(CCCC(=O)O)(CC2)C3)c1 [Example 27]	UniProt:Q5NUL3	1560 nM
CS(=O)(=O)NC(=O)CCCC12CCC(OCc3cc(F)ccc3Oc3ccccc3)(CC1)C2 [Example 83]	UniProt:Q5NUL3	400 nM
O=C(O)CCOC12CCC(OCc3cc(F)cc(Oc4ccccc4)c3)(CC1)C2 [Example 79]	UniProt:Q5NUL3	270 nM
O=C(O)CCC12CCC(OCc3cc(F)cc(Oc4ccccc4)c3)(CC1)C2 [Example 90]	UniProt:Q5NUL3	1220 nM
CC(OC12CCC(COCC(=O)O)(CC1)C2)c1cc(F)cc(Oc2ccc(F)cc2)c1 (stereo not drawn) [Example 76]	UniProt:Q5NUL3	3040 nM
O=C(O)CCCC12CCC(OCc3cc([N+](=O)[O-])ccc3Cl)(CC1)C2 [Example 51]	UniProt:Q5NUL3	2390 nM
O=C(O)CCCC12CCC(OCc3cc(C(F)(F)F)ccc3Cl)(CC1)C2 [Example 63]	UniProt:Q5NUL3	2470 nM
O=C(O)CCCC12CCC(OCc3ccccc3SC(F)(F)F)(CC1)C2 [Example 49]	UniProt:Q5NUL3	660 nM
